test.method.notes: Pharmacokinetics in plasma via inhalation
assay.conditions: mouse, inhaled or intranasal
assay.endpoint: half-life (h)
Express it in h; write the number only.

Give the measured half-life of CC[C@@H](CO)NCCN[C@@H](CC)CO .
2.83

###

For each record, write down the corresponding AUC(0-t).
test.method.notes: Pharmacokinetics in lung via inhalation
assay.conditions: mouse, lung, inhaled or intranasal, AUC0-t, mice, single inhalation 25 min; RIF 2, INH 0.5, EMB 10 mg/mL
Express it in ng·h/mL; write the number only.

Give the measured AUC(0-t) of CC[C@@H](CO)NCCN[C@@H](CC)CO .
47300

Give the measured AUC(0-t) of NNC(=O)c1ccncc1 .
337

###

test.method.notes: Pharmacokinetics in plasma via inhalation
assay.conditions: mouse, inhaled or intranasal, time of peak concentration in plasma post-administration, mice, single inhalation, RIF 2, INH 0.5, EMB 10 mg/mL, first sampling point 5 min
For each record, write down the corresponding Tmax.

Give the measured Tmax of NNC(=O)c1ccncc1 .
≤ 5 min

Give the measured Tmax of CC[C@@H](CO)NCCN[C@@H](CC)CO .
≤ 5 min

###

test.method.notes: Pharmacokinetics in lung via inhalation
assay.conditions: mouse, lung, inhaled or intranasal, 0.5 mg/mL, AUC0-t in the lungs, mice, inhalation 0.5 mg/mL
assay.endpoint: AUC(0-t)

Give the measured AUC(0-t) of NNC(=O)c1ccncc1 .
340 ng·h/mL

###

test.method.notes: Pharmacokinetics in plasma via inhalation
assay.conditions: mouse, inhaled or intranasal, Tmax, mice, single inhalation 25 min, RIF 2, INH 0.5, EMB 10 mg/mL
assay.endpoint: Tmax

Give the measured Tmax of CC[C@@H](CO)NCCN[C@@H](CC)CO .
4.8 min

###

test.method.notes: in vivo
assay.conditions: mouse, inhaled or intranasal, AUC0-t in plasma
assay.endpoint: AUC(0-t)

Give the measured AUC(0-t) of CO[C@H]1/C=C/O[C@@]2(C)Oc3c(C)c(O)c4c(O)c(c(/C=N/N5CCN(C)CC5)c(O)c4c3C2=O)NC(=O)/C(C)=C\C=C\[C@H](C)[C@H](O)[C@@H](C)[C@@H](O)[C@@H](C)[C@H](OC(C)=O)[C@@H]1C .
19000 ng·h/mL

###

For each record, write down the corresponding AUC(0-t).
test.method.notes: Pharmacokinetics in plasma via inhalation
assay.conditions: mouse, inhaled or intranasal, AUC0-t, mice, single inhalation 25 min, RIF 2, INH 0.5, EMB 10 mg/mL, t = 4 h for INH, 24 h for RIF and EMB
Please provide the amount together with its unit, number first.

Give the measured AUC(0-t) of NNC(=O)c1ccncc1 [INH, isoniazid] .
1570 ng·h/mL

Give the measured AUC(0-t) of CC[C@@H](CO)NCCN[C@@H](CC)CO [EMB, ethambutol] .
103000 ng·h/mL

###

test.method.notes: Pharmacokinetics in lung via inhalation
assay.conditions: mouse, lung, inhaled or intranasal, AUC0-∞, mice, single inhalation 25 min; RIF 2, INH 0.5, EMB 10 mg/mL
assay.endpoint: AUC(0-inf) (ng·h/mL)
Express it in ng·h/mL; write the number only.

Give the measured AUC(0-inf) of CC[C@@H](CO)NCCN[C@@H](CC)CO .
48700

###

For each record, write down the corresponding AUC(0-inf).
test.method.notes: Pharmacokinetics in plasma via inhalation
assay.conditions: mouse, inhaled or intranasal, AUC0-∞, mice, single inhalation 25 min, RIF 2, INH 0.5, EMB 10 mg/mL
Express it in ng·h/mL; write the number only.

Give the measured AUC(0-inf) of NNC(=O)c1ccncc1 [INH, isoniazid] .
1790

Give the measured AUC(0-inf) of CC[C@@H](CO)NCCN[C@@H](CC)CO [EMB, ethambutol] .
103000

###

test.method.notes: in vivo
assay.conditions: mouse, inhaled or intranasal, AUC0-∞ in plasma
assay.endpoint: AUC(0-inf) (µg·h/mL)
Express it in µg·h/mL; write the number only.

Give the measured AUC(0-inf) of CO[C@H]1/C=C/O[C@@]2(C)Oc3c(C)c(O)c4c(O)c(c(/C=N/N5CCN(C)CC5)c(O)c4c3C2=O)NC(=O)/C(C)=C\C=C\[C@H](C)[C@H](O)[C@@H](C)[C@@H](O)[C@@H](C)[C@H](OC(C)=O)[C@@H]1C .
21

###

test.method.notes: in vivo
assay.conditions: mouse, inhaled or intranasal
assay.endpoint: Tmax (min)
Express it in min; write the number only.

Give the measured Tmax of NNC(=O)c1ccncc1 .
4.8

###

test.method.notes: in vivo
assay.conditions: mouse, inhaled or intranasal, Tmax
assay.endpoint: Tmax (min)
Express it in min; write the number only.

Give the measured Tmax of CO[C@H]1/C=C/O[C@@]2(C)Oc3c(C)c(O)c4c(O)c(c(/C=N/N5CCN(C)CC5)c(O)c4c3C2=O)NC(=O)/C(C)=C\C=C\[C@H](C)[C@H](O)[C@@H](C)[C@@H](O)[C@@H](C)[C@H](OC(C)=O)[C@@H]1C .
4.8

###

test.method.notes: Pharmacokinetics in lung via inhalation
assay.conditions: mouse, lung, inhaled or intranasal
assay.endpoint: half-life (h)
Express it in h; write the number only.

Give the measured half-life of CC[C@@H](CO)NCCN[C@@H](CC)CO [EMB, ethambutol] .
4.56

###

test.method.notes: Pharmacokinetics in plasma via inhalation
assay.conditions: mouse, inhaled or intranasal, AUC0-t in plasma, mice, inhalation, t = 4 h for INH and 24 h for RIF and EMB
assay.endpoint: AUC(0-t) (ng·h/mL)
Express it in ng·h/mL; write the number only.

Give the measured AUC(0-t) of CC[C@@H](CO)NCCN[C@@H](CC)CO .
103000

Give the measured AUC(0-t) of NNC(=O)c1ccncc1 .
1570

###

test.method.notes: in vivo
assay.conditions: mouse, inhaled or intranasal, Tmax
assay.endpoint: Tmax
Please provide the amount together with its unit, number first.

Give the measured Tmax of CO[C@H]1/C=C/O[C@@]2(C)Oc3c(C)c(O)c4c(O)c(c(/C=N/N5CCN(C)CC5)c(O)c4c3C2=O)NC(=O)/C(C)=C\C=C\[C@H](C)[C@H](O)[C@@H](C)[C@@H](O)[C@@H](C)[C@H](OC(C)=O)[C@@H]1C .
4.8 min
